Tested system: T1, human macrophage scavenger receptor 1 (MSR1) (human, UniProt P21757 1-451)
T1 sequence (looked up): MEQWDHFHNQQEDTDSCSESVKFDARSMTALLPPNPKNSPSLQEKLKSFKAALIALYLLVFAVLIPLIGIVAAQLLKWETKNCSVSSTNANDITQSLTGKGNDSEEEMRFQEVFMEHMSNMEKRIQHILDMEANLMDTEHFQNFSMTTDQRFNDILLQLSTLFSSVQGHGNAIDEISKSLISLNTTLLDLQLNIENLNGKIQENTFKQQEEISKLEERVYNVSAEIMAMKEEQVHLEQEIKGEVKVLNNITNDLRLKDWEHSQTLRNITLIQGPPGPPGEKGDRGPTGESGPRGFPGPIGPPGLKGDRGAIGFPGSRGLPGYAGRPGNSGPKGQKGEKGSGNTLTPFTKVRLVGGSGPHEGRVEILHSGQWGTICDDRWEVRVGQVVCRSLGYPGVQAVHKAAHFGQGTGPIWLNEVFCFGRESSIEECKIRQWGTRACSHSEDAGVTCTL
Test summary: cell-based or functional assay
Property name: S/N, HEK293/GRLuc/MSR1 cells
Give the figure by itself; no unit, no explanation.

Task: State its S/N, HEK293/GRLuc/MSR1 cells for this binder: H1H21234N-N297Q-L13-PII-1 (antibody, V domains shown, heavy-chain constant region (not part of this entry): N297Q (EU); linker-payload L13-PII-1 (COT-GGGG-NHCH2-Bud) conjugated as in Example 5; four DAR ADC) VH: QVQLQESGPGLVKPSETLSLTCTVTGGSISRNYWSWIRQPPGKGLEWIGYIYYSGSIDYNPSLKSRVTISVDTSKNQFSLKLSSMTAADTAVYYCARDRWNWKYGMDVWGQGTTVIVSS VL: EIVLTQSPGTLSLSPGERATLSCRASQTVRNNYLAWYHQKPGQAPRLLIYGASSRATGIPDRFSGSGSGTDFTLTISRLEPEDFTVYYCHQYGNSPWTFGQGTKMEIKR
Result: 226
